Target: W9 probe (isolated 9 bp AT-tract)
Assay: DNase I footprinting on W9 probe
Format: binding
Settings: apparent dissociation constant, W9 probe; read-out: Kdapp W9
ENDPOINT_NAME: Kd (nM)
# unit: nM | format: bare number

-- ask Param item = `CN(C)CCCNC(=O)CCNC(=O)c1cc(NC(=O)c2cc(NC(=O)c3cc(NC(=O)CCNC(=O)c4cc(NC(=O)c5cc(NC(=O)c6cc(NC(=O)CCNC(=O)c7cc(NC(=O)c8cc(NC(=O)c9cccn9C)cn8C)cn7C)cn6C)cn5C)cn4C)cn3C)cn2C)cn1C` ; retrieve measured Kd.
-- reply 1
